molecular target: T1, human 4-1BB (h4-1BB) on transiently transfected CHO cells (human, UniProt Q07011 24-255); experiment: flow cytometry, CHO cells transfected with human 4-1BB, antibody at 0.1 µg/ml
T1 construct: also called TNFRSF9; CD137
property-measured: percentage of cells with FITC signal (%)

INSERT INTO measurements (binder, value) VALUES
  ('55-8F6 (antibody, V domains shown, mouse antibody purified from ascites) VH: QVQLQQPGAELVRPGASVKLSCKASGYIFTSYWINWVKQRPGQGLEWIGNIYPSDSYTNYNQKFKDKATLTVDKSSSTAYMQLSSPTSEDSAVYYCTRFHYGSSPFDNWGQGTTLTVSS VL: DIQMTQSTSSLSASLGDRVTISCRASQDISHYLNWYQQKPDGTVKLLIYYTSRLHSGVPSRFSGSGSGTDYSLTISNLEQEDFATYFCQQGHTLPRTFGGGTKLEIK', 36.1),
  ('61-6A7 (antibody, V domains shown, mouse antibody purified from ascites) VH: EVQLQQSGAELVRPGALVKLSCKASGFNIKDYYMHWVKRRPEQGLEWIGWIDPENGNTIYDPKFQDKASITADTSSNTAYLQLSSLTSEDTAVYYCAEGLPWYFDYWGQGTTLTVSS VL: QIILTQSPALMSASPGEKVTMTCSASSSVSDMNWYQQKPRSSPTPWIYLTSNLSSGVPDRFSGSGSGTSYSLTISSMEAEDAATYYCQQWSGNPLTFGAGTRLELK', 51.1),
  ('69-3C2 (antibody, V domains shown, mouse antibody purified from ascites) VH: DVQLVESGGGLVQPGGSRKLSCAASGFSFSSFGMHWMRQAPEKGLEWVAYISSGSSAIYYADTVKGRFTISRDNPKNTLFLQMTSLRSEDTAMYYCARDWVDYWGQGTTLTVSS VL: DIQMTQSPASLSVSVGETVTITCRASENIYSNLVWYQQKQGKSPQLLVYTATKLTNGVPSRFSGSGSGTQYSLKINSLQSEDFGTYYCQHFWDTPYTFGGGTKLEMK', 52.3),
  ('70-3F9 (antibody, V domains shown, mouse antibody purified from ascites) VH: QVQLQQPGAELVRPGASVKLSCKASGYTFTSYWINWVKQRPGQGLEWIGNIFPSDSYTNYNQKFKDRAKLTVDKSSSTAYMQLSSPTSEDSAVYYCTRFGSSGYPDYYTMEYWGQGTSVTVSS VL: DIQMTQSPASLSASVGETVTITCRASGNIDNYLAWYQQKQGKSPQLLVYNAKTLAEGVPSRFSGSGSGTEYSLKINSLQPEDFGSYHCQQYWTIPYTFGGGTKLEIK', 9.06),
  ('29-6A5 (antibody, V domains shown, mouse antibody purified from ascites) VH: QVQLQQPGAELVRPGASVKLSCKASGYTFSSYWINWVKQRPGQGLEWIGNIYPSDSYTNYNQKFKDKATLTVDKSSSTAYMQLSSPTSDDSAVYYCTRTWEFYYDSVFDYWGQGTTLTVSS VL: DIKMTQSPSSMYASLGERVTITCKASQDINSYLSWFQQKPGKSPKTLIYRANRLVDGVPSRFSGSGSGQDYSLTISSLEYEDMGIYYCLQYDELPPTFGGGTKLEIK', 70.8);

Data origin, for the record: patent US20240092922A1
